Test system: 996289-038-R-J1-PDC spheroid viability;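 further: spheroids exposed to compounds for seven days before viability read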
experimental.details: Anticancer human tumor 996289-038-R-J1-PDC patient-derived colon adenocarcinoma cell line growth inhibition [PI3K]
experimental.context: curve of first compound; second compound 1 µM; spheroids with HUVEC and MSC
metric: IC50

{"columns": ["compound", "obs.value"],
 "data": [
  ["Cn1nccc1Nc1nccc(-c2ccn(C(CO)c3ccc(Cl)c(F)c3)c(=O)c2)n1 (stereo not drawn) + COc1c(OCCCN2CCOCC2)ccc2c3n(c(=NC(=O)c4cnc(N)nc4)nc12)CCN3", "< 31.6 nM"],
  ["CC1(C)CCC(Nc2ncc(C(F)(F)F)c(-c3c[nH]c4c(P(C)(C)=O)c(C#N)ccc34)n2)CN1 (stereo not drawn) + COc1c(OCCCN2CCOCC2)ccc2c3n(c(=NC(=O)c4cnc(N)nc4)nc12)CCN3", "< 31.6 nM"],
  ["C#Cc1c(F)ccc2cc(O)cc(-c3ncc4c(N5CC6CCC(C5)N6)nc(OCC56CCCN5CC(F)C6)nc4c3F)c12 (stereo not drawn) + COc1c(OCCCN2CCOCC2)ccc2c3n(c(=NC(=O)c4cnc(N)nc4)nc12)CCN3", "< 31.6 nM"]
]}
